assay_remarks: Pharmacokinetics in dogs, single IV or oral administration
Type: in vivo, dog
condition_info: blood, 5 mg/kg; dog, oral, 5 mpk
Catalogue of molecules with associated half-life

molecule | half-life [h]
CS(=O)(=O)Nc1cc(-c2ccc3ncnc(Nc4ccc(F)c(Cl)c4)c3c2)cnc1Cl [Comparative Compound 2, reference compound] | 0.8
C[C@@H](Nc1ncnc2ccc(-c3cnc(Cl)c(NS(C)(=O)=O)c3)cc12)c1ccccc1 | 12

* * *

Catalogue of compounds with associated inhibition at 0.1 µM
measured_target: PI3Ka (Homo sapiens (Human), UniProt P42336)
Sequence (P42336 whole entry): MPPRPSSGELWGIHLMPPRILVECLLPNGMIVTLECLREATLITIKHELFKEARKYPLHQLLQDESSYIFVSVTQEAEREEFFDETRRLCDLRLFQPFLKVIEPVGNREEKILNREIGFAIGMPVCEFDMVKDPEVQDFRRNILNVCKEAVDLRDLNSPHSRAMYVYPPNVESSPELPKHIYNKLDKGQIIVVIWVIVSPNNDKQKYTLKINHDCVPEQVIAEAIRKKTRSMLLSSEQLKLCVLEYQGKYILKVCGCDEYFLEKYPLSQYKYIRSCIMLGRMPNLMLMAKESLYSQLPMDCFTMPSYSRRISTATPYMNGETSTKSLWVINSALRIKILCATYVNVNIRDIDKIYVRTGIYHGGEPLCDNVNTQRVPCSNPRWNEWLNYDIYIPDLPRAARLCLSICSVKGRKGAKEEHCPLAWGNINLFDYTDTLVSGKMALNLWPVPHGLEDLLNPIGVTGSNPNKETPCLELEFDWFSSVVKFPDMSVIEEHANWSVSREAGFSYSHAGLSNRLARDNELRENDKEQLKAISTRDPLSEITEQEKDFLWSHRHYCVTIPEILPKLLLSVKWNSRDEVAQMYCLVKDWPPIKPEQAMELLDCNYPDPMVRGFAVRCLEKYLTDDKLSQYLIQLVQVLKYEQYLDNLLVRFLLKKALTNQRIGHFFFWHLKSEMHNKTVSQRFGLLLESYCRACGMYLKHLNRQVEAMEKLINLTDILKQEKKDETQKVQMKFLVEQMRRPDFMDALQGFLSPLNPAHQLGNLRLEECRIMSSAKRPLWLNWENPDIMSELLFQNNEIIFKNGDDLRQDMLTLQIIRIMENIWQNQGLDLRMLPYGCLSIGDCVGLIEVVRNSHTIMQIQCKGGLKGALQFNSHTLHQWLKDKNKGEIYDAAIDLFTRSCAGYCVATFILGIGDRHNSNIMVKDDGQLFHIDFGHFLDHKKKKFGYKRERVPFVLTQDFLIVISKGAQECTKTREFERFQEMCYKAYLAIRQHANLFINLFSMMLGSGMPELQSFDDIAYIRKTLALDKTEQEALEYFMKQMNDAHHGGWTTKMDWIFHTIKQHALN
Sequence (P27986 whole entry partner): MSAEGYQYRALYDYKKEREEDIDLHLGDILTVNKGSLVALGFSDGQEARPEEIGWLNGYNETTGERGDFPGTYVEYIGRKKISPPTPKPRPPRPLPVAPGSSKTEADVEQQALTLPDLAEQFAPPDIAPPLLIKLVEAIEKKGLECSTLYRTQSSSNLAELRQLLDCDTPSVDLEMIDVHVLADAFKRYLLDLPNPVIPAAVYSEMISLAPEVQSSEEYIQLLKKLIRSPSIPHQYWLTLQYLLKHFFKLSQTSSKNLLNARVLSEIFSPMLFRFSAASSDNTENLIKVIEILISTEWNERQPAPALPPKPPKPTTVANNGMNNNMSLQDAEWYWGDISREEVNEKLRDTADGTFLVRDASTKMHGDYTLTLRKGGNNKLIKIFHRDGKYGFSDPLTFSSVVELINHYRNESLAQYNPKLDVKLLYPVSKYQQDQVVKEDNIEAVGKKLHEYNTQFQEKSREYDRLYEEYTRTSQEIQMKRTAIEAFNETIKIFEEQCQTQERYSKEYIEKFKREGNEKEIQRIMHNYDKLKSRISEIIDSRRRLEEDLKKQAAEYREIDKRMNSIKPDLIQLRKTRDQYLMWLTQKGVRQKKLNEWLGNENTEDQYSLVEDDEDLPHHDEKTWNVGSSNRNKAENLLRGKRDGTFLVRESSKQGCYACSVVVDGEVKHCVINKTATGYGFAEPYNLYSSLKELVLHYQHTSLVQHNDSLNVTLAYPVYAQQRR
assay_remarks: Z'-LYTE / Adapta kinase assay, PI3Ka
Type: biochemical
condition_info: read-out: PI3Ka % Inh. @ 100 nM

compound | inhibition at 0.1 µM
C[C@H](Nc1c(C#N)cnc2ccc(-c3cnc(Cl)c(NS(C)(=O)=O)c3)cc12)c1ccc(F)cc1 [Compound 97S] | > 90%
CC(Nc1ncnc2ccc(-c3cnc(N)c(C(=O)N(C)C)c3)cc12)c1ccccc1 (stereo not shown) [Compound 36] | 10 to 80%
CS(=O)(=O)Nc1cc(-c2ccc3ncnc(NCc4ccccc4)c3c2)cnc1Cl [Comparative Compound 1, reference compound] | > 90%
CC(Nc1ncnc2ccc(-c3cnc4cncn4c3)cc12)c1ccccc1 (stereo not shown) [Compound 34] | > 90%
CC(Nc1c(C#N)cnc2ccc(-c3cnc4[nH]ccc4c3)cc12)c1ccccc1 (stereo not shown) [Compound 55] | < 10%
C[C@@H](Nc1c(C#N)cnc2ccc(-c3cnc(Cl)c(NS(C)(=O)=O)c3)cc12)c1ccccc1 [Compound 48R] | > 90%
CS(=O)(=O)Nc1cc(-c2ccc3ncnc(Nc4ccc(F)c(Cl)c4)c3c2)cnc1Cl [Comparative Compound 2, reference compound] | > 90%
COC(=O)c1cncc(-c2ccc3ncnc(N[C@H](C)c4ccccc4)c3c2)c1 [Compound 135] | < 10%
COc1cc(-c2ccc3ncnc(NC(C)c4ccccc4)c3c2)cnc1OC (stereo not shown) [Compound 22] | 10 to 80%
C[C@@H](Nc1ncnc2ccc(-c3cncc(-c4nnc[nH]4)c3)cc12)c1ccccc1 [Compound 138] | < 10%
CC(Nc1c(C#N)cnc2ccc(-c3cncc(C#N)c3)cc12)c1ccccc1 (stereo not shown) [Compound 64] | 10 to 80%
C[C@@H](Nc1ncnc2ccc(-c3cnc(Cl)c(NS(C)(=O)=O)c3)cc12)c1ccc(F)cc1 [Compound 111R] | > 90%
CC(Nc1c(C#N)cnc2ccc(-c3n[nH]c4ccncc34)cc12)c1ccccc1 (stereo not shown) [Compound 124] | < 10%
CC(Nc1c(C#N)cnc2ccc(-c3cnc4cnn(C)c4c3)cc12)c1ccccc1 (stereo not shown) [Compound 73] | 10 to 80%
CC(Nc1c(C#N)cnc2ccc(-c3cc(F)c(O)c(F)c3)cc12)c1ccccc1 (stereo not shown) [Compound 130] | < 10%
CC(Nc1c(C#N)cnc2ccc(-c3cc(Cl)c(O)c(Cl)c3)cc12)c1ccccc1 (stereo not shown) [Compound 131] | < 10%

* * *

Catalogue of compounds with associated inhibition at 0.1 µM
measured_target: DNA-PK (Homo sapiens (Human), UniProt P78527)
assay_remarks: Z'-LYTE / Adapta kinase assay, DNA-PK
Type: biochemical
condition_info: read-out: DNA-PK % Inh. @ 100 nM

compound | inhibition at 0.1 µM
CC(Nc1c(C#N)cnc2ccc(-c3cnc(N)c(C(F)(F)F)c3)cc12)c1ccccc1 (stereo not shown) [Compound 62] | 10 to 80%
CS(=O)(=O)Nc1cc(-c2ccc3ncnc(Nc4ccc(F)c(Cl)c4)c3c2)cnc1Cl [Comparative Compound 2, reference compound] | > 90%
C[C@@H](Nc1ncnc2ccc(-c3cncc(-c4nnc[nH]4)c3)cc12)c1ccccc1 [Compound 138] | 10 to 80%
Cc1nc2cc(-c3ccc4ncc(C#N)c(NC(C)c5ccccc5)c4c3)cnc2[nH]1 (stereo not shown) [Compound 56] | 10 to 80%
CC(Nc1c(C#N)cnc2ccc(-c3n[nH]c4ccncc34)cc12)c1ccccc1 (stereo not shown) [Compound 124] | < 10%
C[C@H](Nc1c(C#N)cnc2ccc(-c3cnc(Cl)c(NS(C)(=O)=O)c3)cc12)c1ccccc1 [Compound 48S] | > 90%
CC(Nc1c(C#N)cnc2ccc(-c3cnc4[nH]nnc4c3)cc12)c1ccccc1 (stereo not shown) [Compound 70] | 10 to 80%
C[C@@H](Nc1c(C#N)cnc2ccc(-c3cnc(Cl)c(NS(C)(=O)=O)c3)cc12)c1ccc(F)cc1 [Compound 97R] | > 90%
CC(Nc1c(C#N)cnc2ccc(-c3cncc(-c4n[nH]c(=O)o4)c3)cc12)c1ccccc1 (stereo not shown) [Compound 129] | 80 to 90%
C[C@@H](Nc1c(C#N)cnc2ccc(-c3cnc(Cl)c(NS(C)(=O)=O)c3)cc12)c1ccccc1 [Compound 48R] | > 90%
COc1ncc(-c2ccc3ncc(C#N)c(NC(C)c4ccccc4)c3c2)cc1C#N (stereo not shown) [Compound 126] | < 10%
COc1cc(-c2ccc3ncnc(NC(C)c4ccccc4)c3c2)cnc1OC (stereo not shown) [Compound 22] | 10 to 80%
CC(Nc1c(C#N)cnc2ccc(-c3cncc(C#N)c3)cc12)c1ccccc1 (stereo not shown) [Compound 64] | 10 to 80%
CC(Nc1c(C#N)cnc2ccc(-c3cnc(N)c(C#N)c3)cc12)c1ccccc1 (stereo not shown) [Compound 65] | 10 to 80%
CC(Nc1c(C#N)cnc2ccc(-c3cnc(N)nc3)cc12)c1ccccc1 (stereo not shown) [Compound 53] | 10 to 80%
CC(Nc1ncnc2ccc(-c3cnc4cnn(C)c4c3)cc12)c1ccccc1 (stereo not shown) [Compound 27] | 10 to 80%

* * *

assay_remarks: Solubility determination (PBS 7.4, SIF, SGF)
Type: physicochemical
condition_info: simulated intestinal fluid (SIF), kinetic from dmso stock; simulated intestinal fluid pH 6.8, 25° C., 2 hours; read-out: Solubility SIF

compound | solubility at 2 h
CC(Nc1ncnc2ccc(-c3cnc(N)nc3)cc12)c1ccccc1 (stereo not shown) | 20 to 100 µM
CC(Nc1c(C#N)cnc2ccc(-c3cnc4[nH]ncc4c3)cc12)c1ccccc1 (stereo not shown) | ≤ 20 µM
COc1cc(-c2ccc3ncnc(NC(C)c4ccccc4)c3c2)cnc1OC (stereo not shown) | 20 to 100 µM
C[C@@H](Nc1ncnc2ccc(-c3cnc(Cl)c(NS(C)(=O)=O)c3)cc12)c1ccc(F)cc1 [Compound 111R] | 20 to 100 µM

* * *

Catalogue of compounds with associated inhibition at 0.1 µM
measured_target: PI3Ka (Homo sapiens (Human), UniProt P42336)
assay_remarks: Z'-LYTE / Adapta kinase assay, PI3Ka
Type: biochemical
condition_info: read-out: PI3Ka % Inh. @ 100 nM
property_name: inhibition at 0.1 µM

compound | property_name | observed
CC(Nc1ncnc2ccc(-c3cnc(N)nc3)cc12)c1ccc(F)cc1 (stereo not shown) [Compound 121] | inhibition at 0.1 µM | 10 to 80%
CC(Nc1ncnc2ccc(-c3cnc(N)nc3)cc12)c1ccccc1 (stereo not shown) [Compound 7] | inhibition at 0.1 µM | 10 to 80%
CC(Nc1c(C#N)cnc2ccc(-c3cnc(N)c(C(F)(F)F)c3)cc12)c1ccccc1 (stereo not shown) [Compound 62] | inhibition at 0.1 µM | < 10%
CC(Nc1c(C#N)cnc2ccc(-c3ccc4oc(N)nc4c3)cc12)c1ccccc1 (stereo not shown) [Compound 87] | inhibition at 0.1 µM | 10 to 80%
CC(Nc1c(C#N)cnc2ccc(-c3n[nH]c4cnccc34)cc12)c1ccccc1 (stereo not shown) [Compound 125] | inhibition at 0.1 µM | < 10%
CC(Nc1c(C#N)cnc2ccc(-c3cnc4ccccc4c3)cc12)c1ccccc1 (stereo not shown) [Compound 122] | inhibition at 0.1 µM | < 10%
CC(Nc1ncnc2ccc(-c3cnc(N)c(S(C)(=O)=O)c3)cc12)c1ccccc1 (stereo not shown) [Compound 31] | inhibition at 0.1 µM | 80 to 90%
CC(Nc1c(C#N)cnc2ccc(-c3cccc(-c4n[nH]c(=O)o4)c3)cc12)c1ccccc1 (stereo not shown) [Compound 127] | inhibition at 0.1 µM | < 10%
C[C@H](Nc1ncnc2ccc(-c3cnc(Cl)c(NS(C)(=O)=O)c3)cc12)c1ccc(F)cc1 [Compound 111S] | inhibition at 0.1 µM | > 90%
C[C@@H](Nc1c(C#N)cnc2ccc(-c3cnc(N)nc3)cc12)c1ccccc1 [Compound 53R] | inhibition at 0.1 µM | 10 to 80%
C[C@@H](Nc1ncnc2ccc(-c3cnc(Cl)c(NS(C)(=O)=O)c3)cc12)c1ccccc1 [Compound 2R] | inhibition at 0.1 µM | > 90%
C[C@H](Nc1c(C#N)cnc2ccc(-c3cnc(Cl)c(NS(C)(=O)=O)c3)cc12)c1ccccc1 [Compound 48S] | inhibition at 0.1 µM | > 90%
CC(Nc1c(C#N)cnc2ccc(-c3cnc(N)c(C#N)c3)cc12)c1ccccc1 (stereo not shown) [Compound 65] | inhibition at 0.1 µM | 10 to 80%
CC(Nc1c(C#N)cnc2ccc(-c3cccnc3)cc12)c1ccccc1 (stereo not shown) [Compound 123] | inhibition at 0.1 µM | < 10%
CC(Nc1c(C#N)cnc2ccc(-c3cnc(Cl)c(NS(C)(=O)=O)c3)cc12)c1ccccc1 (stereo not shown) [Compound 48] | inhibition at 0.1 µM | > 90%
COc1ncc(-c2ccc3ncnc(N[C@H](C)c4ccccc4)c3c2)cc1C#N [Compound 132] | inhibition at 0.1 µM | < 10%
CC(Nc1c(C#N)cnc2ccc(-c3cnc4[nH]ncc4c3)cc12)c1ccccc1 (stereo not shown) [Compound 54] | inhibition at 0.1 µM | 10 to 80%
CC(Nc1ncnc2ccc(-c3cnc4cnccn34)cc12)c1ccccc1 (stereo not shown) [Compound 139] | inhibition at 0.1 µM | 10 to 80%
C[C@@H](Nc1ncnc2ccc(-c3cccc(-c4nnc[nH]4)c3)cc12)c1ccccc1 [Compound 137] | inhibition at 0.1 µM | 10 to 80%
Cc1nc2cc(-c3ccc4ncc(C#N)c(NC(C)c5ccccc5)c4c3)cnc2[nH]1 (stereo not shown) [Compound 56] | inhibition at 0.1 µM | 10 to 80%
CC(Nc1ncnc2ccc(-c3cnc4[nH]ncc4c3)cc12)c1ccccc1 (stereo not shown) [Compound 8] | inhibition at 0.1 µM | 10 to 80%
CC(Nc1c(C#N)cnc2ccc(-c3cncc(C(C)(C)O)c3)cc12)c1ccccc1 (stereo not shown) [Compound 67] | inhibition at 0.1 µM | 10 to 80%
CC(Nc1c(C#N)cnc2ccc(-c3cncc(-c4n[nH]c(=O)o4)c3)cc12)c1ccccc1 (stereo not shown) [Compound 129] | inhibition at 0.1 µM | 10 to 80%
CC(Nc1ncnc2ccc(-c3cnc4cnn(C)c4c3)cc12)c1ccccc1 (stereo not shown) [Compound 27] | inhibition at 0.1 µM | < 10%
C[C@@H](Nc1ncnc2ccc(-c3ccc4c(c3)C(=O)OC4)cc12)c1ccccc1 [Compound 136] | inhibition at 0.1 µM | < 10%
C[C@@H](Nc1ncnc2ccc(-c3cncc(C(=O)NC#N)c3)cc12)c1ccccc1 [Compound 133] | inhibition at 0.1 µM | < 10%
CC(Nc1ncnc2ccc(-c3cncc(C(C)(C)O)c3)cc12)c1ccccc1 (stereo not shown) [Compound 21] | inhibition at 0.1 µM | 10 to 80%
CC(Nc1c(C#N)cnc2ccc(-c3cncc(O)c3)cc12)c1ccccc1 (stereo not shown) [Compound 61] | inhibition at 0.1 µM | < 10%
